# TESTED TARGET: galectin-1 binding to laminin (Homo sapiens, UniProt P09382)
# Sequence (P09382 2-135 limits assumed): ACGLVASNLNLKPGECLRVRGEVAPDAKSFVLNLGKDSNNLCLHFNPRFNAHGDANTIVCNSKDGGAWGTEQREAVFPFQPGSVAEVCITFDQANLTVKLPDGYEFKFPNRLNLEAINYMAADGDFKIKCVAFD
# ASSAY COMMENT: ELISA, inhibition of galectin-1 binding to immobilized laminin
# RECORDED CONDITIONS: at 156 μM; galectin-1 2.5 μg/ml (0.17 μM)
Assign inhibition of binding of galectin-1 to laminin to each entry below.

See these solved cases before continuing.
| COMPOUND | TESTED TARGET | EXPERIMENTAL RESULT |
| --- | --- | --- |
| CC(C)CC(NCC(=O)C(O)C(OC1OC(CO)C(O)C(O)C1O)C(O)CO)C(=O)O [Lactulose-L-leucine, lactulose-L-leucine] | galectin-1 binding to laminin (Homo sapiens, UniProt P09382) | ~40% |
| O=C(CN1CCCC1C(=O)O)C(O)C(OC1OC(CO)C(O)C(O)C1O)C(O)CO [Lactulose-L-proline] | galectin-1 binding to laminin (Homo sapiens, UniProt P09382) | ~40% |
| OC[C@H]1O[C@@H](O[C@H]2[C@H](O)[C@@H](O)[C@H](O)O[C@@H]2CO)[C@H](O)[C@@H](O)[C@H]1O [β-lactose, reference compound] | galectin-1 binding to laminin (Homo sapiens, UniProt P09382) | ~10% |

With those in mind, consider the next compound.
Request: Give the measured inhibition of binding of galectin-1 to laminin of O=C(O)CNCC(=O)C(O)C(OC1OC(CO)C(O)C(O)C1O)C(O)CO (centres unmarked) [Lactulose-glycine] .
Response: ~10%
